The measured values listed here are drawn from patent US12310365B2.

System: Sphaerotheca fuliginea
Assay: Cucumber powdery mildew preventive test
Type: in vivo
Settings: Podosphaera fuliginea, topical, 168 h; treatment concentration 10 ppm
observed property: pest or weed control at 10 ppm (%)
Provide only the numeric value, understood in %.

Which pest or weed control at 10 ppm value belongs to CC1(C)N=C(c2cnc3ccccc3c2)c2ccccc2C1(F)F ?
60

Which pest or weed control at 10 ppm value belongs to CC(C)(C)C(=O)C(Oc1ccc(Cl)cc1)n1cncn1 (centres unmarked) ?
0

====

System: Botrytis cinerea (Diethofencarb-resistant strain)
Test: Tomato gray mold preventive test (Diethofencarb-resistant strain)
Type: in vivo
Details: Botrytis cinerea, topical, 48 h, read-out: Control value
observed property: pest or weed control at 50 ppm (%)
Provide only the numeric value, understood in %.

CC(C)NC(=O)N1CC(=O)N(c2cc(Cl)cc(Cl)c2)C1=O [Iprodione] | 67
CC1(C(=O)Nc2ccc(O)c(Cl)c2Cl)CCCCC1 [Fenhexamid] | 50
CC12CC1(C)C(=O)N(c1cc(Cl)cc(Cl)c1)C2=O (stereo not shown) [Procymidone] | 17

Now for a further molecule.
Please tell me: pest or weed control at 50 ppm of O=C(Nc1ccccc1-c1ccc(Cl)cc1)c1cccnc1Cl [Boscalid] , system Botrytis cinerea (Diethofencarb-resistant strain)?
17
